Record form. Attribute: MIC. Fill in for each entry.
Test system: E. cloacae 6951
assay comment: In vitro antibacterial activity (MIC)
Type: cell-based
assay setup: Enterobacter cloacae, 6951, E. cloacae 6951; read-out: MIC
Where a name gives a salt, the structure may show the parent alone.
Numbers only, in µg/mL.

> print(dat)
                                   molecule  metric  measurement.unit  result
1  Cc1nc(C)n(CCCC2CCN(C=N[C@@H]3C(=O)N4[C@@H]3SC(C)(C)[C@@H]4C(=O)O)CC2)c1C [E, hydrate hydrochloride]     MIC             µg/mL       8
2  CC1(C)S[C@@H]2[C@H](N=CN3CCC(CC4=NCCN4)CC3)C(=O)N2[C@H]1C(=O)O [M, hydrochloride]     MIC             µg/mL      32
3  CN(C)C=Nc1nccn1CCCC1CCN(C=N[C@@H]2C(=O)N3[C@@H]2SC(C)(C)[C@@H]3C(=O)O)CC1 [S, hydrate]     MIC             µg/mL       8
4  CCc1nc(C)cn1CCCC1CCN(C=N[C@@H]2C(=O)N3[C@@H]2SC(C)(C)[C@@H]3C(=O)O)CC1 [G, hydrochloride]     MIC             µg/mL      16
5  CC1(C)S[C@@H]2[C@H](N=CN3CCC(CCCn4ccnc4[N+](=O)[O-])CC3)C(=O)N2[C@H]1C(=O)O [K, hydrate]     MIC             µg/mL      16
6  CC1(C)S[C@@H]2[C@H](N=CN3CCC(Cc4ncc[nH]4)CC3)C(=O)N2[C@H]1C(=O)O [Q, hydrochloride]     MIC             µg/mL      16

# batch: return MIC for each of the 8 molecules below
1. CC1(C)S[C@@H]2[C@H](N=CN3CCC(C4=NCCN4)CC3)C(=O)N2[C@H]1C(=O)O [L, hydrochloride]
2. CC1(C)S[C@@H]2[C@H](N=CN3CCC(Cn4ccnc4)CC3)C(=O)N2[C@H]1C(=O)O
3. CC1(C)S[C@@H]2[C@H](N=CN3CCC(CCC4=NCCN4)CC3)C(=O)N2[C@H]1C(=O)O [N, hydrochloride]
4. CC1(C)S[C@@H]2[C@H](N=CN3CCC(Cn4ccnc4CN)CC3)C(=O)N2[C@H]1C(=O)O [J, hydrochloride]
5. CC1(C)S[C@@H]2[C@H](N=CN3CCC(CCn4ccnc4)CC3)C(=O)N2[C@H]1C(=O)O [B, hydrate hydrochloride]
6. Cc1nccn1CCCC1CCN(C=N[C@@H]2C(=O)N3[C@@H]2SC(C)(C)[C@@H]3C(=O)O)CC1 [F, hydrate]
7. CC1(C)S[C@@H]2[C@H](N=CN3CCC(CCCn4ccnc4CO)CC3)C(=O)N2[C@H]1C(=O)O [R, hydrate]
8. CC1(C)S[C@@H]2[C@H](N=CN3CCC(c4ncc[nH]4)CC3)C(=O)N2[C@H]1C(=O)O [O, hydrochloride trihydrate]

[8, 4, 8, 16, 16, 8, 8, 16]

* * *

Tested on: P. mirabilis 190
assay comment: In vitro antibacterial activity (MIC)
Format: cell-based
assay setup: Proteus mirabilis, 190, P. mirabilis 190; read-out: MIC
Structures can show the parent of a compound that is named as a salt.
metric: MIC (µg/mL)
Give bare numbers, in µg/mL.

Some entries whose results are on file:
> print(dat)
                                   compound  result
1  CC1(C)S[C@@H]2[C@H](N=CN3CCC(Cn4ccnc4)CC3)C(=O)N2[C@H]1C(=O)O [Compound A]    0.25
2  CC1(C)S[C@@H]2[C@H](N=CN3CCC(Cn4ccnc4CN)CC3)C(=O)N2[C@H]1C(=O)O [J, hydrochloride]     0.5
3  CC1(C)S[C@@H]2[C@H](N=CN3CCC(Cc4ncc[nH]4)CC3)C(=O)N2[C@H]1C(=O)O [Q, hydrochloride]    0.25
4  Cc1nc(C)n(CCCC2CCN(C=N[C@@H]3C(=O)N4[C@@H]3SC(C)(C)[C@@H]4C(=O)O)CC2)c1C [E, hydrate hydrochloride]    0.25
5  CC1(C)S[C@@H]2[C@H](N=CN3CCC(CC4=NCCN4)CC3)C(=O)N2[C@H]1C(=O)O [M, hydrochloride]     0.5
6  CC1(C)S[C@@H]2[C@H](N=CN3CCC(c4ncc[nH]4)CC3)C(=O)N2[C@H]1C(=O)O [O, hydrochloride trihydrate]     0.5

// below: MIC requested for another compound
Returns the measured MIC for the input compound. Input: CN(C)C=Nc1nccn1CCCC1CCN(C=N[C@@H]2C(=O)N3[C@@H]2SC(C)(C)[C@@H]3C(=O)O)CC1 [S, hydrate]
1
